target: T1, human PD-1.Fc (human, UniProt Q15116 25-170, limits assumed); assay: SPR, antibody captured on protein A, PD-1.Fc in flow
T1 construct: also called PD-1; Fc protein; PD-1.hFc; not shown: human IgG Fc fragment
T1 sequence (Q15116 25-170 limits assumed): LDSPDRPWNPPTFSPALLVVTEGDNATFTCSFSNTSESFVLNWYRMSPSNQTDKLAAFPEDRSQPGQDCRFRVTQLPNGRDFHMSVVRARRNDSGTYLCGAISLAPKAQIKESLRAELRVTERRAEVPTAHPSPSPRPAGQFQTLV
experimentalEndpoint: koff (s⁻¹)
Kindly provide the numeric value in s⁻¹ only, without the unit symbol.

Entry NB182 (Fc fusion, not shown: IgG4 constant region of vector pCDNA3.4-IgG4) heavy: QVQLVESGGGLVQAGGSLRLSCAASGDTSFISAAGWYRQAPGKERELVAAITNTGITYYPDSVKGRFTISRDNAKNTVYLQMNNLKPEDTAVYYCNAGAPPPGGLGYDESDYWGQGTQVTVSS ; koff = 6.4e-05

Entry NB223 (Fc fusion, not shown: IgG4 constant region of vector pCDNA3.4-IgG4) heavy: EVQLVESGGGLVQAGGSLRLSCAASGRTFSSYGMGWFRQAPGKEREFVAAVNWSNSSAYYADSVKDRFTISSDNAKSTIYLQMNSLKPEDTAVYYCRPYSDYVTYDPDDYDYWGQGTQVTVSS ; koff = 0.000863

Entry NB222 (Fc fusion, not shown: IgG4 constant region of vector pCDNA3.4-IgG4) heavy: QVQLVESGGGLVQAGGSLRLSCAASGGTFSNFNVGWFRQAPGKEREFVAASNWSAGTTHYSDSVKGRFTISRDNAANTAYLQMNSLRPDDTAVYYCNRVIRGTTYPDVYYGMDYWGKGTLVTVSS ; koff = 0.000306

Ref: patent EP4269437A1
